Molecular target: UniProtKB P08660
Sequence (P08660 2-449 G401A): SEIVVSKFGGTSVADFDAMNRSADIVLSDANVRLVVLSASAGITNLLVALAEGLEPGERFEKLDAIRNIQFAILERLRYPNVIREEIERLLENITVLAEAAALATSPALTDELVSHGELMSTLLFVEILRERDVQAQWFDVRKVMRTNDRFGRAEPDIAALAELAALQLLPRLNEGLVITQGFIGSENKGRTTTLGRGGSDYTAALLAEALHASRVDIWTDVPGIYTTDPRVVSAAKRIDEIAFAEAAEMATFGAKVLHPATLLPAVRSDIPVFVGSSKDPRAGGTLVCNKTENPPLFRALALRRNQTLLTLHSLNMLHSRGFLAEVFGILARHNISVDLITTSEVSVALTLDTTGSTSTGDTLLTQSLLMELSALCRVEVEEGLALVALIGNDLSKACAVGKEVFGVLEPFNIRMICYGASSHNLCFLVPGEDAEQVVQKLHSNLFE
Assay: Lysine inhibition of wild type AKIII aspartokinase activity
MEASURED METRIC: IC50

stdin: Form field - read-out: IC50; system: UniProtKB P08660; submitted item: NCCCC[C@H](N)C(=O)O
stdout: 300 to 400 µM

Just for reference, patent US7026527B2 is where these values come from.
